Target: recombinant human catalytic domain of MMP-14 (Homo sapiens, UniProt P50281)
Construct: 177 amino acids corresponding to Tyr89-Gly265 of mature human enzyme
Experiment: In vitro fluorescence assay of MMP-14 activity
Settings: Table 1; unit inferred
pIC50: −log10 of the molar value.
pIC50 values for the compounds below.

Examples with their reported pIC50 follow.
COc1cc(CNC(=O)[C@H](CCC(=O)O)NC(=O)c2ccc(-c3ccccc3)cc2)cc(OC)c1OC    ~4.66
Cc1ccc(CNC(=O)[C@H](CCC(=O)O)NC(=O)c2ccc(-c3ccccc3)cc2)cc1C    4.79

Give pIC50 (recombinant human catalytic domain of MMP-14 (Homo sapiens, UniProt P50281)) of the following compound: COc1ccccc1CNC(=O)[C@H](CCC(=O)O)NC(=O)c1ccc(-c2ccccc2)cc1
~4.60

Give pIC50 (recombinant human catalytic domain of MMP-14 (Homo sapiens, UniProt P50281)) of the following compound: COc1ccc(CNC(=O)[C@H](CCC(=O)O)NC(=O)c2ccc(-c3ccccc3)cc2)c(OC)c1
~4.60

Give pIC50 (recombinant human catalytic domain of MMP-14 (Homo sapiens, UniProt P50281)) of the following compound: C=Cc1ccc(CNC(=O)[C@H](CCC(=O)O)NC(=O)c2ccc(-c3ccccc3)cc2)cc1 [Example 10R]
< 3.70

Give pIC50 (recombinant human catalytic domain of MMP-14 (Homo sapiens, UniProt P50281)) of the following compound: CSc1ccc(CNC(=O)[C@H](CCC(=O)O)NC(=O)c2ccc(-c3ccccc3)cc2)cc1
~4.52

Give pIC50 (recombinant human catalytic domain of MMP-14 (Homo sapiens, UniProt P50281)) of the following compound: O=C(O)CC[C@H](NC(=O)c1ccc(-c2ccccc2)cc1)C(=O)NCc1ccc(Cl)cc1Cl
~4.60

Give pIC50 (recombinant human catalytic domain of MMP-14 (Homo sapiens, UniProt P50281)) of the following compound: O=C(O)CC[C@H](NC(=O)c1ccc(-c2ccccc2)cc1)C(=O)NCCCCCO
< 3.70

----------
Tested on: bovine articular cartilage treated with Interleukin 1 alpha (IL-1α)
Experiment: Bovine articular cartilage explant cultures: inhibition of degradation of proteoglycan
Format: cell-based
Settings: Table 1, second of two columns headed bovine; inhibitory effect expressed as percentage; concentration not printed
Measured attribute: bovine (%)
Give the number; % is assumed, so skip it.

Examples with their reported bovine follow.
O=C(O)CC[C@H](NC(=O)c1ccc(-c2ccccc2)cc1)C(=O)NCc1ccc(Cl)cc1Cl    40
O=C(O)CC[C@H](NC(=O)c1ccc(-c2ccccc2)cc1)C(=O)NCc1ccc(F)cc1    27
COc1cc(CNC(=O)[C@H](CCC(=O)O)NC(=O)c2ccc(-c3ccccc3)cc2)cc(OC)c1OC    78
Cc1cccc(CNC(=O)[C@H](CCC(=O)O)NC(=O)c2ccc(-c3ccccc3)cc2)c1    34
O=C(O)CC[C@H](NC(=O)c1ccc(-c2ccccc2)cc1)C(=O)NC1C2CC3CC(C2)CC1C3 (some centres unmarked)    67
O=C(O)CC[C@H](NC(=O)c1ccc(-c2ccccc2)cc1)C(=O)NCc1ccc(F)c(F)c1    55
CCC(C)NC(=O)[C@H](CCC(=O)O)NC(=O)c1ccc(-c2ccccc2)cc1 (some centres unmarked)    0

For the compound shown here, O=C(O)CC[C@H](NC(=O)c1ccc(-c2ccccc2)cc1)C(=O)NC1CC1 , give the reported bovine.
22

----------
pIC50 values for the compounds below.
Target: recombinant human catalytic domain of MMP-13 (Homo sapiens)
Construct: catalytic domain of MMP-13 (165 amino acids, residues 104-268, 19 kDa)
Assay: In vitro fluorescence assay of MMP-13 activity
Type: biochemical
Settings: Table 1; unit inferred
pIC50: −log10 of the molar value.

Examples with their reported pIC50 follow.
O=C(O)CC[C@H](NC(=O)c1ccc(-c2ccccc2)cc1)C(=O)NC1CC1    ~4.30
O=C(O)CC[C@H](NC(=O)c1ccc(-c2ccccc2)cc1)C(=O)NCCc1cccs1    ~4.30
COc1ccc(CCNC(=O)[C@H](CCC(=O)O)NC(=O)c2ccc(-c3ccccc3)cc2)cc1OC    ~4.30
CC(C)(C)CNC(=O)[C@H](CCC(=O)O)NC(=O)c1ccc(-c2ccccc2)cc1    ~4.30
CCCNC(=O)[C@H](CCC(=O)O)NC(=O)c1ccc(-c2ccccc2)cc1    < 4.30

For the compound shown here, O=C(O)CC[C@H](NC(=O)c1ccc(-c2cccs2)cc1)C(=O)NCc1ccccc1 , give the reported pIC50.
~5.30

For the compound shown here, COc1ccccc1CNC(=O)[C@H](CCC(=O)O)NC(=O)c1ccc(-c2ccccc2)cc1 , give the reported pIC50.
~4.17

For the compound shown here, CCCCCCCNC(=O)[C@H](CCC(=O)O)NC(=O)c1ccc(-c2ccccc2)cc1 , give the reported pIC50.
4.52

----------
Target: MMP-8 (Homo sapiens)
Sequence (P22894 101-467, species assumed): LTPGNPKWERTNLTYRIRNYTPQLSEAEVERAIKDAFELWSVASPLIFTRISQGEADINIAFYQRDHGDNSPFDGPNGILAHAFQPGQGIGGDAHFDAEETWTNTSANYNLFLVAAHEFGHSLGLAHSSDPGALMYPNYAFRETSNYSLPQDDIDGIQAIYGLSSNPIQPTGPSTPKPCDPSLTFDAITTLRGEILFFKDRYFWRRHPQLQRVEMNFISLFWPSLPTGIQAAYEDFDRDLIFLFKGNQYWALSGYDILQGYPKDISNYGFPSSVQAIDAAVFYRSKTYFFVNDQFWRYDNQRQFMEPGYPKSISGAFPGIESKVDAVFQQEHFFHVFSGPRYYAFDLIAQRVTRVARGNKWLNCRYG
pIC50: −log10 of the molar value.
Measured attribute: pIC50

CC(C)(Cc1ccc(F)cc1)NC(=O)[C@H](CCC(=O)O)NC(=O)c1ccc(-c2ccc(Cl)s2)cc1    6.43
CC(C)(Cc1ccccc1)NC(=O)[C@H](CCC(=O)O)NC(=O)c1ccc(-c2ccc(F)cc2)s1    5.59

A: CC(C)(Cc1ccc(F)cc1)NC(=O)[C@H](CCC(=O)O)NC(=O)c1ccc(-c2ccsc2)cc1
B: CC(C)(Cc1ccccc1)NC(=O)[C@H](CCC(=O)O)NC(=O)c1ccc(-c2ccc(F)cc2)cc1
Could you check which of A and B has a smaller value for pIC50? Mark your selection by writing its label.
A
(A: 5.69, B: 6.12)

----------
Biological target: recombinant human catalytic domain of MMP-13 (Homo sapiens)
Construct: catalytic domain of MMP-13 (165 amino acids, residues 104-268, 19 kDa)
Experiment: In vitro fluorescence assay of MMP-13 activity
Assay type: biochemical
Conditions: Table 1; unit inferred
Measured attribute: IC50

O=C(O)CC[C@H](NC(=O)c1ccc(-c2ccccc2)cc1)C(=O)NCc1ccc(F)cc1 [Example 8D]    ~25 µM
CCC(C)NC(=O)[C@H](CCC(=O)O)NC(=O)c1ccc(-c2ccccc2)cc1 (stereo partly shown) [Example 8BBB]    > 50 µM
COc1cccc(CCNC(=O)[C@H](CCC(=O)NO)NC(=O)c2ccc(-c3ccccc3)cc2)c1 [Example 33C]    0.029 µM

Let's switch to this compound now.
Give IC50 (recombinant human catalytic domain of MMP-13 (Homo sapiens)) of the following compound: O=C(O)CC[C@H](NC(=O)c1ccc(-c2ccccc2)cc1)C(=O)NCCCCCO [Example 8WWW]
~200 µM

----------
Molecular target: purified recombinant human Aggrecanase-1 (rAgg1) (Homo sapiens, UniProt O75173)
Sequence (O75173 213-837): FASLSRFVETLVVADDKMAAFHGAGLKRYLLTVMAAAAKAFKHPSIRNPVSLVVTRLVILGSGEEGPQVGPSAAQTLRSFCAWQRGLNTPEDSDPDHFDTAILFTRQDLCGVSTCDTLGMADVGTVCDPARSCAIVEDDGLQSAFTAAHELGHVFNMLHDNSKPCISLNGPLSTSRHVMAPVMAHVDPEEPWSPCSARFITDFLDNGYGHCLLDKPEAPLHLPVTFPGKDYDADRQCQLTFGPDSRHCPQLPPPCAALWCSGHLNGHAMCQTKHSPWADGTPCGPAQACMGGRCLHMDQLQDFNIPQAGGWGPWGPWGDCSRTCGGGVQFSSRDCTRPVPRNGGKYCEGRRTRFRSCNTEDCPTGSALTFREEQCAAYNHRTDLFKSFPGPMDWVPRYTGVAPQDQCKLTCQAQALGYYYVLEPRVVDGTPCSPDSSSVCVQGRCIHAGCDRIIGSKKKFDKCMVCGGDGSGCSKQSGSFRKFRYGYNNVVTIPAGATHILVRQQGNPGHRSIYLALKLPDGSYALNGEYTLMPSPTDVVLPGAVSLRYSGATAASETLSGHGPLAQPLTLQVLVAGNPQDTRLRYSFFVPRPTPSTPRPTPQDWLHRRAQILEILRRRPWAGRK
Assay: In vitro fluorescence screen for Aggrecanase-1 inhibitors
Type: biochemical
Conditions: Table 3; read-out: Agg1 IC50
pIC50: −log10 of the molar value.
Measured attribute: pIC50

CC(C)(Cc1ccc(F)cc1)NC(=O)[C@H](CCC(=O)O)NC(=O)c1ccc(-c2ccc(Cl)cc2)cc1    > 7.52
CC(C)(Cc1ccc(Cl)cc1)NC(=O)[C@H](CCC(=O)O)NC(=O)c1ccc(-c2ccccc2)nc1    7.00
CC(C)(Cc1ccc(Cl)cc1)NC(=O)[C@H](CCC(=O)O)NC(=O)c1ccc(-c2ccc(F)cc2F)cc1    7.10
CC(C)(Cc1ccc(F)cc1)NC(=O)[C@H](CCC(=O)O)NC(=O)c1ccc(-c2ccc3c(c2)CCO3)cc1    6.68 to 7.15
CC(C)(Cc1ccccc1)NC(=O)[C@H](CCC(=O)O)NC(=O)c1ccc(-c2ccc(COc3ccc4c(c3)OCO4)cc2)cc1 [Example 15P]    > 7.52
CC(C)(Cc1ccc(F)cc1)NC(=O)[C@H](CCC(=O)O)NC(=O)c1ccc(-c2ccc(F)c(Cl)c2)s1    > 7.52

For the compound shown here, COc1cccc(-c2ccc(C(=O)N[C@@H](CCC(=O)O)C(=O)NC(C)(C)Cc3ccc(F)cc3)s2)c1 , give the reported pIC50.
> 7.52

For the compound shown here, CC(C)(Cc1ccc(Cl)cc1)NC(=O)[C@H](CCC(=O)O)NC(=O)c1ccc(-c2ccc(Cl)s2)nc1 , give the reported pIC50.
7.15 to 7.70

For the compound shown here, CC(C)(Cc1ccc(Cl)s1)NC(=O)[C@H](CCC(=O)O)NC(=O)c1ccc(-c2ccccc2)cc1 , give the reported pIC50.
> 7.52

For the compound shown here, CC(C)(Cc1ccccc1)NC(=O)[C@H](CCC(=O)O)NC(=O)c1cccc(-c2cccs2)c1 , give the reported pIC50.
< 5.08
